# Tested on: U2OS
# assay.text: cell viability relative to DMSO; higher = less toxic
# test.context: 72 h; 10 nM
Structures can show the parent of a compound that is named as a salt.
Reported values of cell viability for individual entries
Give the value in % but do not write % after it.

compound	quantity.name	readout.number
CC(=O)N(CC(O)CO)c1c(I)c(C(=O)NCCO)c(I)c(C(=O)NCC(O)CO)c1I (stereo not drawn)	cell viability	97.1
COc1cc(N2CCC(N3CCN(C)CC3)CC2)ccc1Nc1ncnc(Nc2ccccc2S(=O)(=O)C(C)C)n1	cell viability	94.5
O=C(O)CCc1cc(C(=O)c2ccc(OC3CCCC3)cc2O)ccc1OCc1ccc2c(O)noc2c1	cell viability	99.2

Data request, read-out cell viability, for C1CCC(/N=C(\NC23CC4CC(CC(C4)C2)C3)N2CCOCC2)CC1
94.8

Any idea what cell viability was measured for O=C(CCCCC(=O)Nc1c(I)cc(I)c(C(=O)O)c1I)Nc1c(I)cc(I)c(C(=O)O)c1I [iodipamide] ?
103

Fill blank: measured cell viability of the compound O=C(CN1C2=NCCN2c2ccccc21)c1ccc(-c2ccccc2)cc1 is ____.
104

So what's the measured cell viability for this one? CN(C)CCOc1ccc(/C(=C(/CCCl)c2ccccc2)c2ccccc2)cc1 [Toremifene citrate]
103

Give its cell viability value. Item: NCC(=O)O
96.7

Which cell viability is reported for this compound? O=c1[nH]ccc2cc(OC3CCNCC3)ccc12
98.2

----------
Reported drug-induced phospholipidosis values for a set of compounds
# Test system: A549-ACE2
# assay.text: drug-induced phospholipidosis relative to tamoxifen; higher = more phospholipidosis
# test.context: 30 µM; 72 h
Report only the number, with the unit % understood.

Answered examples (3):
> print(dat)
                  compound.structure.string                  quantity.name  readout.number
1  COc1ccc(/C=C/C(=O)/C=C(O)/C=C/c2ccc(OC)c(OC)c2)cc1OC  drug-induced phospholipidosis            37.4
2  Clc1ccccc1CNC[C@H]1CC[C@H](CNCc2ccccc2Cl)CC1  drug-induced phospholipidosis             157
3  CCCC[C@@H](C=O)NC(=O)[C@H](CC(C)C)NC(=O)OCc1ccccc1  drug-induced phospholipidosis            87.8

Consider now this further compound.
Value lookup for drug-induced phospholipidosis; key = CN(NC(=O)CC(=O)NN(C)C(=S)c1ccccc1)C(=S)c1ccccc1
10

----------
Readings of cell viability for the listed molecules
# Tested on: Caco-2
# assay.text: cell viability relative to DMSO; higher = less toxic
# test.context: 72 h; 10000 nM
Put down the number, then write its unit next to it.

Use these answered entries as a reference point.
> print(dat)
                                   molecule  system.name  result
1     COc1cccc(OC)c1OCCNC[C@H]1COc2ccccc2O1       Caco-2   85.3%
2  CNC(=O)[C@@H](c1ccccc1)N1CCc2cc(OC)c(OC)cc2[C@@H]1CCc1ccc(C(F)(F)F)cc1       Caco-2     76%
3  CCCCCCN(CCCCCC)C(=O)Cc1c(-c2ccc(F)cc2)[nH]c2ccccc12       Caco-2   68.6%
4  N[C@@H](CC(=O)Nc1ccc(Oc2cc(F)c(F)cc2Br)cc1)C(=O)O       Caco-2     99%
5  O=c1c(-c2ccc(O)cc2)coc2c([C@@H]3O[C@H](CO)[C@@H](O)[C@H](O)[C@H]3O)c(O)ccc12       Caco-2   96.3%

Any idea what cell viability was measured for O=C(OC(C(F)(F)F)C(F)(F)F)N1CCN(Cc2cccc(Oc3ccccc3)c2)CC1 ?
92.4%

Quick check: cell viability of Cc1ccc2c(c1)C(=O)[C@]1(O)CCN(c3ccccc3)C1=N2 (racemic) [blebbistatin-(+/-)] ?
94.2%

Would you mind telling me what cell viability value was observed for NC(=O)C[C@H](N)C(=O)O ?
105%

Where these numbers come from: the supplement of paper PMC13380429
